- System: Amblyomma americanum
- experiment summary: In vitro contact test with hard ticks (Amblyomma americanum nymphs)
- measurement parameters: dose 0.2 μg/cm^2, 48 h, read-out: acaricidal activity
measured quantity: pest or weed control at 0.2 µg/cm2, 0.2 µg/cm2 (%)
Dear colleague, please return just the value in %, with no unit written.

Item O=C(Nc1cccc(C(=O)Nc2c(I)cc(C(F)(C(F)(F)F)C(F)(F)F)cc2C(F)(F)F)c1F)c1ccc(Cl)cc1Cl [Compound 33] : provide pest or weed control at 0.2 µg/cm2, 0.2 µg/cm2
90

Item O=C(Nc1cccc(C(=O)Nc2c(I)cc(C(F)(C(F)(F)F)C(F)(F)F)cc2OC(F)F)c1F)c1ccc(F)c(F)c1 [Compound 110] : provide pest or weed control at 0.2 µg/cm2, 0.2 µg/cm2
90

Item N#Cc1ccc(C(=O)Nc2cccc(C(=O)Nc3c(I)cc(C(F)(C(F)(F)F)C(F)(F)F)cc3C(F)(F)F)c2F)cn1 [Compound 79] : provide pest or weed control at 0.2 µg/cm2, 0.2 µg/cm2
90
